Measured values drawn from ChEMBL document CHEMBL1128648 for this set.

Target: Protein kinase C (PKC)
Experimental Protocol: Inhibition of Protein kinase C isolated from rat brain
Endpoint Name: IC50 (µM)

Molecule: CC(=O)O.CCCCCCCCCCC#Cc1cccc([C@@H](O)[C@@H](N)CO)c1 (stereo in doubt; 10 (-))
Unit String: µM
Assay Value: 21.8

Molecule: CCCCCCCCCCC#Cc1csc([C@@H](O)[C@@H](N)CO)c1.O=C(O)CCC(=O)O (stereo in doubt; 18 (-))
Unit String: µM
Assay Value: 20.1

Molecule: CCCCCCCCCCC#Cc1csc([C@@H](O)[C@@H](N)CO)c1.Cl (stereo in doubt; 3a (+/-))
Unit String: µM
Assay Value: 28.8

Molecule: CCCCCCCCCCC#Cc1csc([C@@H](O)[C@@H](N)CO)c1.O=C(O)CCC(=O)O (stereo in doubt; 19 (+))
Unit String: µM
Assay Value: 23

Molecule: CCCCCCCCCCC#Cc1csc([C@@H](O)[C@@H](N)CO)c1.Cl (stereo in doubt; 19a)
Unit String: µM
Assay Value: 23

Molecule: CCCCCCCCCCC#Cc1csc([C@@H](O)[C@@H](N)CO)c1.Cl (stereo in doubt; 18a)
Unit String: µM
Assay Value: 20.1

Molecule: CC(=O)O.CCCCCCCCCCC#Cc1cccc([C@@H](O)[C@@H](N)CO)c1 (stereo in doubt; 11(+))
Unit String: µM
Assay Value: 19.5

Molecule: CC(=O)O.CCCCCCCCCCC#Cc1ccc([C@@H](O)[C@@H](N)CO)s1
Unit String: µM
Assay Value: 21.3
